These measurements were taken from patent US20240108746A1.

Can you tell me Blocking T1/2 for the items I'm about to list?
Target: T1, Biotinylated CD3-specific binding domain SEQ ID NO: 13 (biotinylated (site not stated))
T1 construct: Ligand on the neutravidin (NLC) SPR chip; The same domain is the CD3-specific domain of TCE #1
T1 chain: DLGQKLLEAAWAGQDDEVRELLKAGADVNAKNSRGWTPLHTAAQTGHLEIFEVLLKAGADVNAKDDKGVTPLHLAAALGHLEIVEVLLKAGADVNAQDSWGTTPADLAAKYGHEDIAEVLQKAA
Test: calculated from SPR koff (ln2/koff)
# value in h; strip the unit string

Enquiry: Reported Blocking T1/2 for Binder #1 (designed binder, expressed in E. coli and purified by its His-tag) MRGSHHHHHHGSDLGKKLLQAARAGQLDEVRELLKAGADVNAKDFKGLTPLHLAAAHGHLEIVEVLLKAGADVNAKDVYGWTPLHIAAASGHLEIVEVLLKAGADVNAKDWLGITPLHLAASHGHLEIVEVLLKAGADVNAQDKSGKTPADLAARAGHQDIAEVLQKAA : what is it?
Return: 3.1

Enquiry: Reported Blocking T1/2 for Binder #3 (designed binder) MRGSHHHHHHGSDLGKKLLQAARAGQLDEVRELLKAGADVNAKDFKGLTPLHLAAAHGHLEIVEVLLKAGADVNAKDVYGWTPLHWAAAKGHLEIVEVLLKAGADVNAKDWLGITPLHLAASHGHLEIVEVLLKAGADVNAQDKSGKTPADLAARAGHQDIAEVLQKAA : what is it?
Return: 6.9
